# Measurement target: CPEB1 pS138 peptide (UniProt Q9BZB8, phosphoserine at 138)
# Test description: ITC
Measured property: pKd
# pKd = -log10(concentration in molar units)

Which pKd is listed for MADEEKLPPGWEKRMSRSSGRVYYFNHITNASQWERPSGNS (domain or fragment) [Pin1 WW domain] ? 4.15
